Numbers sourced from BigSolDB 2.1.

Conditions: in methanol, 283.15 K
Attribute measured: solubility (mole fraction)
In your answer, state the number alone without any accompanying words.

In: State the recorded solubility (mole fraction) for this entry: `CCOC(=O)[C@@H]1CSCN1.Cl`
Out: 0.0465

====

Conditions: in 2-butanone, 293.15 K
Attribute measured: solubility (mole fraction)
Answer field: number only, no words.

In: What does the record list as solubility (mole fraction) for `CCOC(=O)[C@@H]1CSCN1.Cl` ?
Out: 0.000107

====

Conditions: in acetone, 293.15 K
Attribute measured: solubility (mole fraction)
Answer as a number with no unit attached.

In: solubility (mole fraction) for `CCOC(=O)[C@@H]1CSCN1.Cl` ?
Out: 0.000116
